Provide the recorded AUC(0-inf) for the entries that follow.
Experiment Summary: AUC (0 to infinity) in cynomolgus monkey at 5 mg/kg, po
Assay type: ADME, organism-based, Macaca fascicularis
Set-up: time infinity, dose 5 mg/kg, route oral
Cond: plasma
Answers are plain numbers, in µM·h.

CCc1cc2c(cc1F)c(C#N)c(-c1ccc(S(=O)(=O)N[C@@H](C)C(F)(F)F)cn1)n2-c1ncccn1; 3.1

Any idea what AUC(0-inf) was measured for C[C@H](NS(=O)(=O)c1ccc(-c2c(C#N)c3cc(F)c(OC(F)F)cc3n2C2CCC2)nc1)C(F)(F)F ? 24.8

----------
Experiment Summary: Volume of distribution at steady state in beagle dog at 2.5 mg/kg, iv and 5 mg/kg, po
Assay type: ADME, organism-based, Canis lupus familiaris
Cond: in vivo, read-out: Vdss
Observed Property: Vd (L/kg)
Answers are plain numbers, in L/kg.

Entry CCc1cc2c(cc1F)c(C#N)c(-c1ccc(S(=O)(=O)N[C@@H](C)C(F)(F)F)cn1)n2-c1ncccn1 : reported Vd = ? 2.1

----------
Experiment Summary: Ratio of drug level in liver to plasma in Sprague-Dawley rat at 10 mg/kg, po after 6 hrs
Format: ADME, organism-based
Design: dose 10 mg/kg, route oral
Give Kp at 6 h for every item shown.
Answers are plain numbers.

Worked set:
CCc1cc2c(cc1F)c(C#N)c(-c1ccc(S(=O)(=O)N[C@@H](C)C(F)(F)F)cn1)n2C1CCC1; 30.6
C[C@H](NS(=O)(=O)c1ccc(-c2c(C#N)c3cc(F)c(OC(F)F)cc3n2C2CCC2)nc1)C(F)(F)F; 11.4
Cc1cc2c(cc1F)c(C#N)c(-c1ccc(S(=O)(=O)N[C@@H](C)C(F)(F)F)cn1)n2C1CCC1; 29.1

Now look at this one.
Need Kp at 6 h, item CCc1cc2c(cc1F)c(C#N)c(-c1ccc(S(=O)(=O)N[C@@H](C)C(F)(F)F)cn1)n2-c1ncccn1 25

----------
Experiment Summary: Cmax in beagle dog at 5 mg/kg, po
Type: ADME, organism-based, Canis lupus familiaris
Set-up: dose 5 mg/kg, route oral
Cond: in vivo
Observed Property: Cmax (µM)
Numbers only, in µM.

What Cmax value was documented for this compound, CCc1cc2c(cc1F)c(C#N)c(-c1ccc(S(=O)(=O)N[C@@H](C)C(F)(F)F)cn1)n2-c1ncccn1 ? 4

----------
What bioavailability was measured for each of the following?
Experiment Summary: Oral bioavailability in Sprague-Dawley rat at 10 mg/kg
Assay type: ADME, organism-based
Cond: in vivo

CCc1cc2c(cc1F)c(C#N)c(-c1ccc(S(=O)(=O)N[C@@H](C)C(F)(F)F)cn1)n2-c1ncccn1; 62%

State the recorded bioavailability for this entry: C[C@H](NS(=O)(=O)c1ccc(-c2c(C#N)c3cc(F)c(OC(F)F)cc3n2C2CCC2)nc1)C(F)(F)F 49%

----------
Kindly supply the reported AUC(0-inf) values for the records listed here.
Experiment Summary: AUC (0 to infinity) in Sprague-Dawley rat at 10 mg/kg, po
Type: ADME, organism-based
Design: time infinity, dose 10 mg/kg, route oral
Cond: plasma
Give the value; after it, write the unit.

CCc1cc2c(cc1F)c(C#N)c(-c1ccc(S(=O)(=O)N[C@@H](C)C(F)(F)F)cn1)n2-c1ncccn1; 20 µM·h

Continue with the next molecule.
Which value of AUC(0-inf) has been reported for C[C@H](NS(=O)(=O)c1ccc(-c2c(C#N)c3cc(F)c(OC(F)F)cc3n2C2CCC2)nc1)C(F)(F)F in the records? 24.8 µM·h

----------
Experiment Summary: Clearance in Sprague-Dawley rat at 6 mg/kg, iv
Format: ADME, organism-based
Design: dose 6 mg/kg, route intravenous
Cond: in vivo
Observed Property: clearance (mL/min/kg)
Give bare numbers, in mL/min/kg.

CCc1cc2c(cc1F)c(C#N)c(-c1ccc(S(=O)(=O)N[C@@H](C)C(F)(F)F)cn1)n2-c1ncccn1; 10.1

Please examine the following record next.
Find the recorded clearance belonging to C[C@H](NS(=O)(=O)c1ccc(-c2c(C#N)c3cc(F)c(OC(F)F)cc3n2C2CCC2)nc1)C(F)(F)F and report it. 3

----------
Record form. Attribute: AUC(0-t) at 6 h. Fill in for each entry.
Experiment Summary: AUC (0 to 6 hrs) in Sprague-Dawley rat at 10 mg/kg, po
Format: ADME, organism-based
Design: time < 6 hr, dose 10 mg/kg, route oral
Cond: plasma
Report field: quantity (unit follows the number).

Field: example entries. Status: answers known.
Cc1cc2c(cc1F)c(C#N)c(-c1ccc(S(=O)(=O)N[C@@H](C)C(F)(F)F)cn1)n2-c1nccs1; 1.76 µM·h
Cc1cc2c(cc1F)c(C#N)c(-c1ccc(S(=O)(=O)N[C@@H](C)C(F)(F)F)cn1)n2-c1ccccn1; 4.52 µM·h
Cc1cc2c(cc1F)c(C#N)c(-c1ccc(S(=O)(=O)N[C@@H](C)C(F)(F)F)cn1)n2-c1ncc(F)cn1; 4.08 µM·h
Cc1cc2c(cc1F)c(C#N)c(-c1ccc(S(=O)(=O)N[C@@H](C)C(F)(F)F)cn1)n2-c1ccncc1; 2.6 µM·h
C[C@H](NS(=O)(=O)c1ccc(-c2c(C#N)c3cc(F)c(C4CC4)cc3n2-c2ccc(F)cn2)nc1)C(F)(F)F; 1.7 µM·h
Cc1cc2c(cc1F)c(C#N)c(-c1ccc(S(=O)(=O)N[C@@H](C)C(F)(F)F)cn1)n2-c1ccc(F)cn1; 3.45 µM·h
CCc1cc2c(cc1F)c(C#N)c(-c1ccc(S(=O)(=O)N[C@@H](C)C(F)(F)F)cn1)n2-c1ccccn1; 3.85 µM·h
CCc1cc2c(cc1F)c(C#N)c(-c1ccc(S(=O)(=O)N[C@@H](C)C(F)(F)F)cn1)n2-c1ccncc1; 6.38 µM·h

Take each entry in turn and give its AUC(0-t) at 6 h.
1. C[C@H](NS(=O)(=O)c1ccc(-c2c(C#N)c3ccc(OC(F)F)cc3n2-c2ncccn2)nc1)C(F)(F)F
2. Cc1cc2c(cc1F)c(C#N)c(-c1ccc(S(=O)(=O)N[C@@H](C)C(F)(F)F)cn1)n2-c1cncs1
3. Cc1cc2c(cc1F)c(C#N)c(-c1ccc(S(=O)(=O)N[C@@H](C)C(F)(F)F)cn1)n2-c1ncccn1

20.1 µM·h
6.27 µM·h
8.91 µM·h

List AUC(0-t) at 6 h for every entry below, keeping the order given.
1. Cc1cc2c(cc1F)c(C#N)c(-c1ccc(S(=O)(=O)N[C@@H](C)C(F)(F)F)cn1)n2-c1cscn1
2. Cc1cc2c(cc1F)c(C#N)c(-c1ccc(S(=O)(=O)N[C@@H](C)C(F)(F)F)cn1)n2-c1ncccc1F
3. C[C@H](NS(=O)(=O)c1ccc(-c2c(C#N)c3cc(F)c(C4CC4)cc3n2-c2ncccn2)nc1)C(F)(F)F
4. Cc1cc2c(cc1F)c(C#N)c(-c1ccc(S(=O)(=O)N[C@@H](C)C(F)(F)F)cn1)n2-c1cccnn1

10.3 µM·h
8.54 µM·h
2.04 µM·h
3.26 µM·h

Recorded AUC(0-t) at 6 h of CCc1cc2c(cc1F)c(C#N)c(-c1ccc(S(=O)(=O)N[C@@H](C)C(F)(F)F)cn1)n2-c1ncccn1 , please. 8.16 µM·h

----------
Record form. Attribute: log10 of AUC(0-t) at 6 h. Fill in for each entry.
Experiment Summary: AUC (0 to 6 hrs) in Sprague-Dawley rat at 10 mg/kg, po
Assay type: ADME, organism-based
Design: time < 6 hr, dose 10 mg/kg, route oral
Cond: plasma
Short version: log10 scale, AUC(0-t) at 6 h, µM·h.

For every item below, please supply its log10 of AUC(0-t) at 6 h.
1. C[C@H](NS(=O)(=O)c1ccc(-c2c(C#N)c3cc(F)c(OC(F)F)cc3n2-c2ncccn2)nc1)C(F)(F)F
2. Cc1cc2c(cc1F)c(C#N)c(-c1ccc(S(=O)(=O)N[C@@H](C)C(F)(F)F)cn1)n2-c1cnccn1
3. CCc1cc2c(cc1F)c(C#N)c(-c1ccc(S(=O)(=O)N[C@@H](C)C(F)(F)F)cn1)n2-c1cnccn1
4. Cc1cc2c(cc1F)c(C#N)c(-c1ccc(S(=O)(=O)N[C@@H](C)C(F)(F)F)cn1)n2-c1cccs1
5. CCc1cc2c(cc1F)c(C#N)c(-c1ccc(S(=O)(=O)N[C@@H](C)C(F)(F)F)cn1)n2C1CCC1

1: 0.58; 2: -0.05; 3: -0.46; 4: -0.32; 5: -0.52

----------
Experiment Summary: Volume of distribution at steady state in Sprague-Dawley rat at 6 mg/kg, iv and 10 mg/kg, po
Assay type: ADME, organism-based
Cond: in vivo, read-out: Vdss
Observed Property: Vd (L/kg)
Give bare numbers, in L/kg.

Suppose we examine the compound CCc1cc2c(cc1F)c(C#N)c(-c1ccc(S(=O)(=O)N[C@@H](C)C(F)(F)F)cn1)n2-c1ncccn1 ; what Vd value has been reported? 3.9
